target: T1, human CD3e (T-cell surface glycoprotein CD3 epsilon chain) (human, UniProt P07766 23-207); experiment: flow cytometry, human PBMC, antibody 0.1 µg/mL, anti-human IgG Fc-Alexa Fluor647 (1:500), anti-hTcRβ-PerCP (1:30)
T1 construct: Target of the anti-hCD3e antibodies on human PBMC, Jurkat cells and cells expressing human CD3e; on T cells it is part of the CD3/TCR complex; also called hCD3e; CD3e on human PBMC
metric: upper right quadrant, percent of cells AF647+ / hTcRβ-PerCP+
Your reply should be a number followed by the unit it is expressed in.

Here is how some binders turned out for upper right quadrant, percent of cells AF647+ / hTcRβ-PerCP+.
binder	recordedValue
1B1-H1K1-IgG1-LALA (antibody, V domains shown, Humanized; human IgG1 with LALA mutations; also called H1K1 (humanized 1B1)) VH: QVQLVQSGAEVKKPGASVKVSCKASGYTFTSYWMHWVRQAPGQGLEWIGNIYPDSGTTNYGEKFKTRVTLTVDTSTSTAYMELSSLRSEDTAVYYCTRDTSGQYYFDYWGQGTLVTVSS VL: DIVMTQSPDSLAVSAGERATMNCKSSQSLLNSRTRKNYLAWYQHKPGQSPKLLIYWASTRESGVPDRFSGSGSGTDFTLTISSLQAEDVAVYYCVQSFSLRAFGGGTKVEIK	54.8%
1B1-H2K2-IgG1-LALA (antibody, V domains shown, Humanized; human IgG1 with LALA mutations; also called H2K2 (humanized 1B1)) VH: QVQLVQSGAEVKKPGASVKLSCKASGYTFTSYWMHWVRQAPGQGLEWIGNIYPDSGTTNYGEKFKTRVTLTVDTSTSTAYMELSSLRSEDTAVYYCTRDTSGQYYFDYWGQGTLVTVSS VL: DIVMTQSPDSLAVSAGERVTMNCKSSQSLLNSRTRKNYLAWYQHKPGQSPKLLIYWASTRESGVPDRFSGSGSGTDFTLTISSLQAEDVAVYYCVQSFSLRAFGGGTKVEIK	47.1%

Exercise: Please report the recorded upper right quadrant, percent of cells AF647+ / hTcRβ-PerCP+ for 1B1-H1K2-IgG1-LALA (antibody, V domains shown, Humanized; human IgG1 with LALA mutations; also called H1K2 (humanized 1B1)) VH: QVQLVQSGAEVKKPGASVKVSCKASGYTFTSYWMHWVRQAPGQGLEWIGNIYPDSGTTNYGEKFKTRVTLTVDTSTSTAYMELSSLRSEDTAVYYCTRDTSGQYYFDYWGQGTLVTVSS VL: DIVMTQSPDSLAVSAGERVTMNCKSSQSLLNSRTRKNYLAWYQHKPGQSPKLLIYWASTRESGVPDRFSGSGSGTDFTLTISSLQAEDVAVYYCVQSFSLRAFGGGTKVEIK .
Solution: 58.1%
